Test system: TRZAWR (Wheat, Winter, cv Riband)
Experiment: Postemergence herbicidal evaluation
Format: in vivo, Triticum aestivum
Conditions: Rate 0.0158 kg/ha
Protocol: In the tests, seedling plants are grown in jiffy flats for about two weeks. The test compounds are dispersed in 50/50 acetone/water mixtures containing 0.5% TWEEN®20, a polyoxyethylene sorbitan monolaurate surfactant of Atlas Chemical Industries, in sufficient quantities to provide the equivalent of about 0.0156 kg to 0.500 kg per hectare of active compound when applied to the plants through a spray nozzle operating at 40 psi for a predetermined time. […]
MEASURED_ENDPOINT: Postemergence herbicidal rating TRZAWR
# respond with the number and nothing more

Recorded Postemergence herbicidal rating TRZAWR (molecule CN1C(=O)C(CC(=O)O)SC1=Nc1cc(-n2c(=O)cc(C(F)(F)F)n(C)c2=O)c(F)cc1Cl (centres unmarked) [Compound 63] ): 5.5

Recorded Postemergence herbicidal rating TRZAWR (molecule CCOC(=O)CN1C(=O)C(CC(=O)OC)S/C1=N/c1cc(-n2c(=O)cc(C(F)(F)F)n(C)c2=O)c(F)cc1Cl (centres unmarked) [Compound 54] ): 5.0

Recorded Postemergence herbicidal rating TRZAWR (molecule CCOC(=O)CN1CC(=O)N(CC(=O)OCC)C1=Nc1cc(-n2c(=O)cc(C(F)(F)F)n(C)c2=O)c(F)cc1Cl [Compound 34] ): 4.0

Recorded Postemergence herbicidal rating TRZAWR (molecule CCOC(=O)CN1C(=O)C(CC(N)=O)S/C1=N/c1cc(-n2c(=O)cc(C(F)(F)F)n(C)c2=O)c(F)cc1Cl (centres unmarked) [Compound 56] ): 4.0

Recorded Postemergence herbicidal rating TRZAWR (molecule CCOC(=O)CN1C(=O)C(Cc2ccccc2OC)SC1=Nc1cc(-n2c(=O)cc(C(F)(F)F)n(C)c2=O)c(F)cc1Cl (centres unmarked) [Compound 37] ): 2.0

----------
test system: SAGPY (Arrowhead (Pygmaea)); test: Preemergence weed control under flooded paddy conditions; assay type: in vivo, Sagittaria pygmaea; settings: 0.2500 kg/ha, rated 3-4 weeks after treatment
Exercise: for every item that follows, state its recorded herbicidal effect rating, SAGPY.

Recorded herbicidal effect rating, SAGPY (molecule CC(C)S(=O)(=O)NC(=O)CC1SC(=Nc2cc(-n3c(=O)cc(C(F)(F)F)n(C)c3=O)c(F)cc2Cl)N(C)C1=O (stereo not shown) ): 4.5

Recorded herbicidal effect rating, SAGPY (molecule CCOC(=O)CN1C(=O)C(C(=O)OC)SC1=Nc1cc(-n2c(=O)cc(C(F)(F)F)n(C)c2=O)c(F)cc1Cl (stereo not shown) ): 6.0

Recorded herbicidal effect rating, SAGPY (molecule CCOC(=O)CN1C(=O)C(CC(=O)O)SC1=Nc1cc(N2C(=O)CC(C(F)(F)F)CC2=O)c(F)cc1Cl (stereo not shown) ): 9.0

Recorded herbicidal effect rating, SAGPY (molecule C=C1SC(=Nc2cc(-n3c(=O)cc(C(F)(F)F)n(C)c3=O)c(F)cc2Cl)N(CC(=O)OCC)C1=O ): 6.0

----------
test system: ABUTH (Velvetleaf); test: Postemergence herbicidal evaluation; assay type: in vivo, Abutilon theophrasti; settings: postemergence, rate 0.0156 kg/ha
Exercise: for every item that follows, state its recorded ABUTH herbicidal rating.
# respond with the number and nothing more

Recorded ABUTH herbicidal rating (molecule CCOC(=O)CN1C(=O)CN(C)C1=Nc1cc(-n2c(=O)cc(C(F)(F)F)n(C)c2=O)c(F)cc1Cl [Compound 25] ): 9.0

Recorded ABUTH herbicidal rating (molecule CCOC(=O)/C=C1/S/C(=N/c2cc(-n3c(=O)cc(C(F)(F)F)n(C)c3=O)c(F)cc2Cl)N(CC(=O)OCC)C1=O [Compound 14] ): 9.0

Recorded ABUTH herbicidal rating (molecule C=CCN1C(=O)C(CC(=O)OCCF)SC1=Nc1cc(-n2c(=O)cc(C(F)(F)F)n(C)c2=O)c(F)cc1Cl (stereo not shown) [Compound 86] ): 9.0

Recorded ABUTH herbicidal rating (molecule CCOC(=O)CN1C(=O)C(CC(=O)NO)S/C1=N/c1cc(-n2c(=O)cc(C(F)(F)F)n(C)c2=O)c(F)cc1Cl (stereo not shown) [Compound 98] ): 2.0
